Values compiled from patent US20200317792A1.

Target: T1, recombinant, soluble his tagged human EGFR (Sino Biologicals) (human, UniProt P00533 25-645)
T1 construct: extracellular domain; also called human epidermal growth factor receptor; not shown: his tag
Assay: BLI (ForteBio Octet Red), IgG on protein A tips, 100 nM soluble EGFR;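 also: antibody binding to EGFR read out as on and off rates plus equilibrium affinity, calculated with the Octet instrument software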
PROPERTY_NAME: binding result

BINDER	PROPERTY_NAME	OBSERVED_MEASUREMENT
CoDAH design C2 VH/C2 Vκ (antibody, V domains shown, Pareto optimal design; Measured as full length IgG) VH: QVQLQQSGPGLVKPSQTLSLTCTVSGFSLTNYGVHWVRQSPGKGLEWLGVIWSGGNTDYNTPFTSRLTISVDTSKNQVSLKLSSVTSNDTAVYYCARALTYYDYEFAYWGQGTLVTVSA VL: DIVLTQSPVFLSVTPGEKVTITCRASQSIGTNIHWYQQKPDQSPKLLIKYASESISGVPSRFSGSGSGTDFTLTINSVESEDIADYYCQQNNNWPTTFGAGTKLELKR	binding result	binds
CoDAH design C1 VH/C5 Vκ (antibody, V domains shown, Cross pair; Measured as full length IgG) VH: QVQLQQSGPGLVKPSQTLSLTCTVSGFSLTNYGVHWVRQSPGKGLEWLGVIWSGGNTDYNTPFTSRLTISKDTSKNQVSLKLSSVTSNDTAVYYCARALTYYDYEFAYWGQGTLVTVSA VL: EIVLTQSPVILSVSPGERVTFSCRASQSIGTNIHWYQQKTDQSPRLLIKYASESISGIPSRFSGSGSGTDFTLTINSVESEDIADYYCQQNNNWPTTFGQGTKLELKR	binding result	binds
